- TARGET_OR_TEST_SYSTEM: human Edg-2 receptor (Homo sapiens, UniProt Q92633)
- Sequence (Q92633 whole entry): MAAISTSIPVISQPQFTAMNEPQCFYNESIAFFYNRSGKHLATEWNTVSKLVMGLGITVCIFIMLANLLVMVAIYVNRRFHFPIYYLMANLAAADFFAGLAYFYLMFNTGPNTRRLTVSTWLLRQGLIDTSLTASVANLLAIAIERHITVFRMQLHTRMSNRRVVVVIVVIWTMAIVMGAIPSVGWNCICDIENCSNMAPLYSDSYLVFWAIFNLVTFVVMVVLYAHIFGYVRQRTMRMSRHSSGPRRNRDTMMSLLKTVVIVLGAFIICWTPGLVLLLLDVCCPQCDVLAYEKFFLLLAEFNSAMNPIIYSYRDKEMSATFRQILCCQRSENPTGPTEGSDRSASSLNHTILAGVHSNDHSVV
- PROCEDURE_TEXT: Determination of Edg-2 receptor inhibition by FLIPR measurements (LPA-mediated calcium liberation)
- COND: CHO cells overexpressing human Edg-2 receptor, LPA 100 nM, fluo-4 calcium fluorescence; read-out: Inhibitory concentrations IC50 for inhibition of the Edg-2 receptor
pIC50: −log10 of the molar value.

COMPOUND | pIC50
COc1ccc(C(=O)NC2(C(=O)O)CCC(F)CC2)cc1OCCc1cccc(C)c1 (stereo not shown) [Example 44] | 6.00 to 7.00
CC[C@H]1CC[C@](NC(=O)c2cc(F)c(OCCO)c(-c3ccc(F)c(F)c3)c2)(C(=O)O)CC1 [Example 384] | > 7.00
COc1ccc(C(=O)NC2(C(=O)O)CC3CCC(C3)C2)cc1OCCc1cccc(C)c1 (stereo not shown) [Example 31] | > 7.00
COc1ccc(C(=O)NC2(C(=O)O)CCCCCC2)cc1OCC1(c2ccccc2)COC1 [Example 22] | > 7.00
COc1ccc(C(=O)NC2(C(=O)O)CCCCCCC2)cc1OCCc1cc(C)ccc1F [Example 24] | 6.00 to 7.00
COc1ncc(C(=O)NC2(C(=O)O)CCCCCC2)cc1-c1cccc(Cl)c1 [Example 94] | 6.00 to 7.00
COc1ccc(C(=O)N[C@]2(C(=O)O)CC[C@H](C)CC2)cc1OCCc1ccccc1 [Example 406] | 6.00 to 7.00
COc1ccc(C(=O)NC2(C(=O)O)CCCCCC2)cc1OCCc1cccc(Cl)c1F [Example 21] | 6.00 to 7.00
COc1ncc(C(=O)NC2(C(=O)O)CCCCCC2)cc1-c1cccc(C#N)c1 [Example 92] | 4.52 to 6.00
COc1ncc(C(=O)NC2(C(=O)O)CCCCCC2)cc1OCCc1cccc(C)c1 [Example 77] | > 7.00
COc1ncc(C(=O)N[C@]2(C(=O)O)CC[C@@H](C)CC2)cc1-c1cc(Cl)cc(C(F)(F)F)c1 [Example 315] | > 7.00
COc1ccc(C(=O)NC2(C(=O)O)CCC(OC)CC2)cc1OCCc1cccc(C)c1 (stereo not shown) [Example 374] | > 7.00
CC[C@@H]1C[C@]1(NC(=O)c1cnc(OC)c(OCCc2cccc(Cl)c2)c1)C(=O)O [Example 361] | > 7.00
CC[C@H]1CC[C@@](NC(=O)c2cnc(OC)c(OCCc3cccc(C)c3)c2)(C(=O)O)CC1 [Example 395] | > 7.00
CC[C@H]1CC[C@](NC(=O)c2cc(F)c(OC)c(-c3ccc(OC)c(Cl)c3)c2)(C(=O)O)CC1 [Example 447] | > 7.00
COc1ncc(C(=O)N[C@]2(C(=O)O)CC[C@@H](C)CC2)cc1-c1cccc(C(F)(F)F)c1 [Example 318] | > 7.00

====

- TARGET_OR_TEST_SYSTEM: human Edg-2 receptor (Homo sapiens, UniProt Q92633)
- PROCEDURE_TEXT: Determination of Edg-2 receptor inhibition by FLIPR measurements (LPA-mediated calcium liberation)
- Type: cell-based
- COND: CHO cells overexpressing human Edg-2 receptor, LPA 100 nM, fluo-4 calcium fluorescence; read-out: Inhibitory concentrations IC50 for inhibition of the Edg-2 receptor
pIC50: −log10 of the molar value.
Listed next: entries and their corresponding pIC50.

COMPOUND | pIC50
CC[C@H]1CC[C@@](NC(=O)c2ccc(C=O)c(-c3cccc(C(F)(F)F)c3)c2)(C(=O)O)CC1 | 6.00 to 7.00
C[C@H]1CC[C@@](NC(=O)c2ccc(OCCO)c(OCCc3ccccc3)c2)(C(=O)O)CC1 | 6.00 to 7.00
COc1ccc(C(=O)N[C@]2(C(=O)O)CC[C@H](C(F)(F)F)CC2)cc1-c1cccc(C2COC2)c1 | > 7.00
CC[C@H]1CC[C@](NC(=O)c2cnc(OC)c(-c3cccc(Cl)c3Cl)c2)(C(=O)O)CC1 | > 7.00

====

Listed next: entries and their corresponding pIC50.
- TARGET_OR_TEST_SYSTEM: human Edg-2 receptor (Homo sapiens)
- PROCEDURE_TEXT: Determination of Edg-2 receptor inhibition by FLIPR measurements (LPA-mediated calcium liberation)
- COND: CHO cells overexpressing human Edg-2 receptor, LPA 100 nM, fluo-4 calcium fluorescence; read-out: Inhibitory concentrations IC50 for inhibition of the Edg-2 receptor
pIC50: −log10 of the molar value.

MOLECULE | TARGET_OR_TEST_SYSTEM | pIC50
COc1ccc(C(=O)NC2(C(=O)O)CCCCC2)cc1OCCc1cccc(C)c1 | human Edg-2 receptor (Homo sapiens) | 6.00 to 7.00
CC[C@H]1CC[C@@](NC(=O)c2cc(F)c(OC)c(OCCc3cccc(CCO)c3)c2)(C(=O)O)CC1 | human Edg-2 receptor (Homo sapiens) | > 7.00
COc1ccc(C(=O)NC2(C(=O)O)CCCCCC2)cc1OCCc1cc(F)ccc1F | human Edg-2 receptor (Homo sapiens) | > 7.00
Cc1cccc(CCOc2cc(C(=O)NC3(C(=O)O)CCCCCC3)cc3c2OCO3)c1 | human Edg-2 receptor (Homo sapiens) | > 7.00
COc1ncc(C(=O)N[C@]2(C(=O)O)CC[C@H](C(F)(F)F)CC2)cc1-c1cccc(C(F)(F)F)c1F | human Edg-2 receptor (Homo sapiens) | > 7.00
CC[C@H]1CC[C@](NC(=O)c2cnc(OC)c(-c3cc(F)c(F)c(F)c3)c2)(C(=O)O)CC1 | human Edg-2 receptor (Homo sapiens) | > 7.00
COc1ccc(C(=O)NC2(C(=O)O)CCCCCC2)cc1OCCc1c(C)n[nH]c1C | human Edg-2 receptor (Homo sapiens) | 6.00 to 7.00
COc1ncc(C(=O)N[C@]2(C(=O)O)CC[C@H](C(F)(F)F)CC2)cc1OCCc1cccc(C)c1 | human Edg-2 receptor (Homo sapiens) | > 7.00
Cc1cccc(CCOc2cc(C(=O)N[C@]3(C(=O)O)CC[C@H](C(F)(F)F)CC3)cc3c2OC(F)(F)O3)c1 | human Edg-2 receptor (Homo sapiens) | > 7.00
COc1ccc(C(=O)NC2(C(=O)O)CCCCCC2)cc1OCCc1ccc(Cl)cc1Cl | human Edg-2 receptor (Homo sapiens) | 4.52 to 6.00
CCC1CCC(NC(=O)c2ccc(OC)c(OCCc3cccc(C)c3)c2)(C(=O)O)CC1 (stereo not shown) [Example 30] | human Edg-2 receptor (Homo sapiens) | > 7.00
COc1ncc(C(=O)N[C@]2(C(=O)O)CC[C@@H](C)CC2)cc1OCCc1ccccc1 | human Edg-2 receptor (Homo sapiens) | > 7.00
COc1ccc(C(=O)NC2(C(=O)O)CCCCCC2)cc1OCCc1c(F)cccc1Cl | human Edg-2 receptor (Homo sapiens) | > 7.00
COc1ccc(C(=O)NC2(C(=O)O)CCC3(CC2)OCCO3)cc1OCCc1cccc(C)c1 | human Edg-2 receptor (Homo sapiens) | > 7.00
CC[C@H]1CC[C@](NC(=O)c2ccc(C(F)(F)F)c(-c3ccc(OC)c(Cl)c3)c2)(C(=O)O)CC1 | human Edg-2 receptor (Homo sapiens) | > 7.00
COc1ccc(C(=O)NC2(C(=O)O)CCCCCC2)cc1OCCc1ccccc1 | human Edg-2 receptor (Homo sapiens) | > 7.00

====

- TARGET_OR_TEST_SYSTEM: human Edg-2 receptor (Homo sapiens, UniProt Q92633)
- PROCEDURE_TEXT: Determination of Edg-2 receptor inhibition by FLIPR measurements (LPA-mediated calcium liberation)
- COND: CHO cells overexpressing human Edg-2 receptor, LPA 100 nM, fluo-4 calcium fluorescence; read-out: Inhibitory concentrations IC50 for inhibition of the Edg-2 receptor
Listed next: entries and their corresponding IC50.

MOLECULE | IC50
CC[C@H]1CC[C@@](NC(=O)c2cnc(OC)c(-c3cccc(OC(F)(F)F)c3)c2)(C(=O)O)CC1 [Example 306] | < 100 nM
COc1ccc(C(=O)NC2(C(=O)O)CCC(CO)CC2)cc1OCCc1cccc(C)c1 (stereo not shown) [Example 58] | 1000 to 30000 nM
COc1ncc(C(=O)NC2(C(=O)O)CCCCCC2)cc1-c1cccc(C(C)C)c1 [Example 95] | 100 to 1000 nM
CC[C@H]1CC[C@](NC(=O)c2ccc(C3COC3)c(OCCc3cccc(C)c3)c2)(C(=O)O)CC1 [Example 130] | < 100 nM
COc1c(F)cc(C(=O)NC2(C(=O)O)CCCCCC2)cc1OCCc1cccc(CCO)c1 [Example 393] | < 100 nM
Cc1cccc(CCOc2cc(C(=O)NC3(C(=O)O)CCCCCC3)ccc2Cl)c1 [Example 64] | 100 to 1000 nM
CC[C@H]1CC[C@](C(=O)O)(N(C)C(=O)c2ccc(OC)c(OCCc3cccc(C)c3)c2)CC1 [Example 441] | 1000 to 30000 nM
CC[C@H]1CC[C@@](NC(=O)c2cnc(OC)c(-c3ccc(OC)c(F)c3)c2)(C(=O)O)CC1 [Example 412] | < 100 nM
CC[C@H]1CC[C@](NC(=O)c2ccc(OC)c(-c3cccc(C(F)(F)F)c3)c2)(C(=O)O)CC1 [Example 331] | < 100 nM
CC[C@H]1CC[C@](NC(=O)c2ccc(OC)c(OCCc3cccc(C4COC4)c3)c2)(C(=O)O)CC1 [Example 127] | < 100 nM
Cc1cccc(CCOc2cc(C(=O)NC3(C(=O)O)CCCCCC3)ccc2C(C)F)c1 (stereo not shown) [Example 63] | < 100 nM
CC[C@H]1CC[C@](NC(=O)c2ccc(OC)c(OCCc3ccccc3)c2)(C(=O)O)CC1 [Example 206] | < 100 nM
COc1ccc(C(=O)N[C@]2(C(=O)O)CC[C@@H](C)CC2)cc1OCCc1cccc(C2COC2)c1 [Example 128] | 100 to 1000 nM
CC[C@H]1CC[C@@](NC(=O)c2ccc(OC)c(OCCc3ccccc3)c2)(C(=O)O)CC1 [Example 205] | < 100 nM
COc1ccc(C(=O)N[C@]2(C(=O)O)CC[C@H](C)CC2)cc1OCCc1cc(Cl)ccc1F [Example 404] | < 100 nM
CC[C@H]1CC[C@@](NC(=O)c2cnc(OC)c(OCCc3ccccc3)c2)(C(=O)O)CC1 [Example 355] | < 100 nM
COc1ncc(C(=O)N[C@]2(C(=O)O)CC[C@H](C(F)(F)F)CC2)cc1-c1cc(F)c(F)c(F)c1 [Example 375] | < 100 nM
COCCOc1ccc(C(=O)N[C@]2(C(=O)O)CC[C@@H](C)CC2)cc1OCCc1cccc(C)c1 [Example 117] | 1000 to 30000 nM
CC[C@H]1CC[C@@](NC(=O)c2cnc(OC)c(-c3ccc(Cl)c(C(F)(F)F)c3)c2)(C(=O)O)CC1 [Example 408] | 100 to 1000 nM
COc1ccc(C(=O)NC2(C(=O)O)CCCCCC2)cc1OCCc1cc(C)ccc1C [Example 18] | 100 to 1000 nM
CC[C@H]1CC[C@](NC(=O)c2cnc(OC)c(-c3cccc(C(F)(F)F)c3)c2)(C(=O)O)CC1 [Example 303] | < 100 nM
COc1ccc(C(=O)NC2(C(=O)O)CCCC2OC)cc1OCCc1cccc(C)c1 (stereo not shown) [Example 68] | < 100 nM
CC[C@H]1CC[C@](NC(=O)c2cnc(OC)c(-c3cccc(OC(F)(F)F)c3)c2)(C(=O)O)CC1 [Example 299] | < 100 nM
COc1ccc(C(=O)NC2(C(=O)O)CCCCC2C)cc1OCCc1cccc(C)c1 (stereo not shown) [Example 48] | 1000 to 30000 nM
COc1ccc(C(=O)NC2(C(=O)O)CCCCCCC2)cc1OCCc1cccc(C)c1 [Example 23] | 100 to 1000 nM
CC[C@H]1CC[C@](NC(=O)c2cnc(OC)c(OCCc3cccc(Cl)c3)c2)(C(=O)O)CC1 [Example 357] | < 100 nM
CC[C@H]1CC[C@](NC(=O)c2cncc(-c3ccc(OC)c(Cl)c3)c2)(C(=O)O)CC1 [Example 453] | < 100 nM
CC[C@H]1CC[C@](NC(=O)c2cnc(OCCO)c(-c3ccc(OC)c(Cl)c3)c2)(C(=O)O)CC1 [Example 417] | < 100 nM
CC[C@H]1CC[C@](NC(=O)c2cnc(OCCO)c(-c3cccc(OC(F)(F)F)c3)c2)(C(=O)O)CC1 [Example 416] | < 100 nM
COc1ncc(C(=O)N[C@]2(C(=O)O)CC[C@@H](C)CC2)cc1OCCc1cc(C)ccc1C [Example 84] | 1000 to 30000 nM
COc1ccc(C(=O)NC2(C(=O)O)CCCCCC2)cc1OCCc1cccc(F)c1 [Example 365] | 100 to 1000 nM

The origin of these recorded values is patent US9018383B2.
